Property: Inhibition of growth of phytopathogenic fungi colonies, % Fusarium oxysporum test field; scope: individual molecules
Tested on: Fusarium oxysporum
assay_explanation: Inhibition of phytopathogenic fungi, field test on affected potato plants
Type: in vivo
condition_summary: 5 m^2 plots of affected potato plants sprayed
Answer format: numeric, % implied, no suffix.

Solved cases below.
molecule="O=C(NP(=O)(NC(CO)C(O)c1ccc([N+](=O)[O-])cc1)NC(CO)C(O)c1ccc([N+](=O)[O-])cc1)c1ccc(Cl)cc1 (stereo not drawn) [Example 12]" system_under_test="Fusarium oxysporum" value_reported=59
molecule="O=C(NP(=O)(Nc1ccc(Cl)cc1Cl)Nc1ccc(Cl)cc1Cl)c1ccc(Br)cc1 [Example 13]" system_under_test="Fusarium oxysporum" value_reported=43

Field: next molecule
For O=C(NP(=O)(Nc1ccc(Br)cc1)Nc1ccc(Br)cc1)c1ccc(Br)cc1 [Example 15] on Fusarium oxysporum, measured Inhibition of growth of phytopathogenic fungi colonies, % Fusarium oxysporum test field was 81
